The measurements presented in this section are drawn from the supplement of paper PMC10065799.

Tested on: c-Abl (mouse)
assay_overview: phosphorylation enrichment, bacterial display (enrichment ratio); higher = better substrate or ligand; peptides without Tyr show the background;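 further: 11-residue human phosphosite peptides and single-mutation variants displayed on the E. coli surface, counted by deep sequencing, each peptide's frequency after selection divided by its frequency in the unselected input library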;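 further: frequency after pTyr selection over input frequency; kinase dosed for 20-30% of maximal phosphorylation in three min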
Property: phosphorylation enrichment; scope: individual sequences
Give your answer as a number; write no unit.

Known phosphorylation enrichment results, listed for orientation:
{"sequence_chain": "SHGKRYRVPSD [HHIPL2_Y395]", "phosphorylation enrichment": 0.337}
{"sequence_chain": "STDDGCIDLQF [TMEM230_Y29_Y29C]", "phosphorylation enrichment": 0.668}
{"sequence_chain": "MKDLTYSSLCF [ALOX5_Y446_A447S]", "phosphorylation enrichment": 1.53}
{"sequence_chain": "FDGKEYDPVEA [MAPRE2_Y167_YF]", "phosphorylation enrichment": 0.924}
{"sequence_chain": "LGRKLYSIATP [ABHD12_Y345_A349T]", "phosphorylation enrichment": 1.07}
{"sequence_chain": "LFSGDCFRIQG [DDR2_Y740_Y740C_YF]", "phosphorylation enrichment": 0.84}
{"sequence_chain": "IRRIAYEFVEM [ADA_Y84_K80R]", "phosphorylation enrichment": 0.489}
{"sequence_chain": "RHPLEYLRQYP [NARS2_Y138]", "phosphorylation enrichment": 1.37}
{"sequence_chain": "GGFTRYCDGKK [PROS1_Y266_C265R_YF]", "phosphorylation enrichment": 0.601}
{"sequence_chain": "LGSNTYPFLLT [SAG_Y120]", "phosphorylation enrichment": 0.938}

Next item in the queue.
// returns phosphorylation enrichment for DQIDTYELSGG [DNM1_Y354] with c-Abl (mouse); value = 0.616

---

System: Fer (mouse)
assay_overview: phosphorylation enrichment, bacterial display (enrichment ratio); higher = better substrate or ligand; peptides without Tyr show the background
Lab note: compare phosphorylation enrichment against 0.5. Equal or greater, write MET. Smaller, write NOT MET.

// below: answered sequences
{"sequence_chain": "LAGRYYALKSM [CKB_Y174]", "assay_system": "Fer (mouse)", "class_label": "MET"}
{"sequence_chain": "TEQDPYNNIVH [MMUT_Y364_R369H]", "assay_system": "Fer (mouse)", "class_label": "MET"}
{"sequence_chain": "PPVVNYEEDAR [FER_Y402]", "assay_system": "Fer (mouse)", "class_label": "MET"}
{"sequence_chain": "RNVFFYSFLLK [PTEN_Y178_Y174N_YF]", "assay_system": "Fer (mouse)", "class_label": "MET"}
{"sequence_chain": "FSPPYYHRNCM [HGD_Y334_R330S]", "assay_system": "Fer (mouse)", "class_label": "NOT MET"}
{"sequence_chain": "TMKSRYMELYD [BBS2_Y644]", "assay_system": "Fer (mouse)", "class_label": "NOT MET"}
{"sequence_chain": "ILIFHYAKGQP [MPZ_Y82_S78L]", "assay_system": "Fer (mouse)", "class_label": "MET"}
{"sequence_chain": "VNFQPYRKHKF [TEX37_Y28_D24N_YF]", "assay_system": "Fer (mouse)", "class_label": "NOT MET"}
{"sequence_chain": "ETKKQYDSFTF [TMED3_Y85_YF]", "assay_system": "Fer (mouse)", "class_label": "NOT MET"}
{"sequence_chain": "KGELCYMHSRV [ABCD1_Y281_R280C]", "assay_system": "Fer (mouse)", "class_label": "NOT MET"}

-- ask Test whether the sequence LNEWHYGGLTG [PGAM2_Y92_R90W] records phosphorylation enrichment of 0.5 or higher.
-- reply MET

-- ask Hello, I need to know if FARNSYVAGQY [G6PD_Y107] has measured phosphorylation enrichment not below 0.5. Thanks!
-- reply NOT MET

-- ask API: above_or_equal(metric=phosphorylation enrichment, cutoff=0.5) for item GLDGSYLPRDS [SH2D1A_Y29_L31P]
-- reply NOT MET

-- ask Decide: is the reported value of phosphorylation enrichment for GLGGVYGGASG [KRT8_Y54_G53V] equal to or greater than 0.5?
-- reply NOT MET
